Readings of IC50 for the listed molecules
SYSTEM_NAME: UniProt P09960
Sequence (P09960 whole entry): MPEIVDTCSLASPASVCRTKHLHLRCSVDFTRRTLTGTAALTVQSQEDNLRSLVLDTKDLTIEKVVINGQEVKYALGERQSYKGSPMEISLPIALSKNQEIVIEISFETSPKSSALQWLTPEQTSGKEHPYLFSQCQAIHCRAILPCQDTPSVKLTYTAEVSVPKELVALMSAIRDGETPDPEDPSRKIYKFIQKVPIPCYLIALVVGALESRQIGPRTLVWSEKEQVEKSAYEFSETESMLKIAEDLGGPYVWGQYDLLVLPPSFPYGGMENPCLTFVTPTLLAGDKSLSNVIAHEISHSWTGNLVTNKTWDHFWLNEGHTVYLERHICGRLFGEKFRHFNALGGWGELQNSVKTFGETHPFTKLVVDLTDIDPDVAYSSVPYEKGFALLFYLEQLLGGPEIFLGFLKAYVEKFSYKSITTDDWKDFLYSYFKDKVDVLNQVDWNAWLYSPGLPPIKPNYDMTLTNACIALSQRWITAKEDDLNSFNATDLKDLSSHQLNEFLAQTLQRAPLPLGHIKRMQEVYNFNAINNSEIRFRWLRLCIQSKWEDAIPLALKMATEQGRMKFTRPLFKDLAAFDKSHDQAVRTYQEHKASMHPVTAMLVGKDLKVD
Your reply should be a number followed by the unit it is expressed in.

Worked examples follow.
c1ccc2c(c1)OC[C@@H](c1ccc(CN3CCOCC3)cc1)O2; 40.1 nM
c1cnc2c(c1)OCC(c1ccc(CN3CCCC3)cc1)O2 (stereo not shown); 0.77 nM
CC(=O)N1CCC(N(C)Cc2ccc([C@H]3COc4ccccc4O3)cc2)CC1; 2.32 nM

Then this molecule:
input: Under UniProt P09960: IC50 value of O=S1(=O)CCN(Cc2ccc(C3COc4cccnc4O3)cc2)CC1 (stereo not shown) ?
output: 0.73 nM
